Attribution: paper PMC10247784

# ASSAYED SYSTEM: human TAS2R4 (Homo sapiens, UniProt Q9NYW5)
# Construct: expressed in transfected cells; host or cells: HEK293T-Gα16gust44
# Sequence (Q9NYW5 1-299): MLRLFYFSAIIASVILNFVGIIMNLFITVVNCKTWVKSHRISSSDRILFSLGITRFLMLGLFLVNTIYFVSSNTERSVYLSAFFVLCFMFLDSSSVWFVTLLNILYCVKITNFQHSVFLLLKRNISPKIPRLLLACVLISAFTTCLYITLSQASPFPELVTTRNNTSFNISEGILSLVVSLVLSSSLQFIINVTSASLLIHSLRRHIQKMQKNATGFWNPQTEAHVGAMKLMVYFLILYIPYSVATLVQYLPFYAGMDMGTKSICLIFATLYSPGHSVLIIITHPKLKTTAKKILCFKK
# ASSAY: Calcium imaging assay (FLIPR), HEK293T-Gα16gust44 cells transfected with human TAS2R4; also: test concentration or dose not given here
# Format: cell-based
# RUN PARAMETERS: Time (s) 62.781 (TCA, TLCA: 62.782)
Label condition met when RLU, fluorescence trace is strictly below 400 RLU; otherwise label condition not met.

Example entries and their recorded answers appear below.
Asked: Bench note: check whether C[C@H](CCC(=O)NCCS(=O)(=O)O)[C@H]1CC[C@H]2[C@@H]3CC[C@@H]4C[C@H](O)CC[C@]4(C)[C@H]3CC[C@]12C shows RLU, fluorescence trace below 400 RLU
Given back: condition met

Asked: Bench note: check whether C[C@H](CCC(=O)NCC(=O)O)[C@H]1CC[C@H]2[C@@H]3[C@H](O)C[C@@H]4C[C@H](O)CC[C@]4(C)[C@H]3C[C@H](O)[C@]12C shows RLU, fluorescence trace below 400 RLU
Given back: condition not met

Asked: Bench note: check whether C[C@H](CCC(=O)O)[C@H]1CC[C@H]2[C@@H]3[C@H](O)C[C@@H]4C[C@H](O)CC[C@]4(C)[C@H]3C[C@H](O)[C@]12C shows RLU, fluorescence trace below 400 RLU
Given back: condition not met

Asked: Bench note: check whether C[C@H](CCC(=O)O)[C@H]1CC[C@H]2[C@@H]3CC[C@@H]4C[C@H](O)CC[C@]4(C)[C@H]3C[C@H](O)[C@]12C shows RLU, fluorescence trace below 400 RLU
Given back: condition met

Turning now to a further compound:
Asked: Bench note: check whether C[C@H](CCC(=O)NCCS(=O)(=O)O)[C@H]1CC[C@H]2[C@@H]3[C@H](O)C[C@@H]4C[C@H](O)CC[C@]4(C)[C@H]3C[C@H](O)[C@]12C shows RLU, fluorescence trace below 400 RLU
Given back: condition not met
